target: CSNK1G3 (human) (UniProt Q9Y6M4); test: radiometric filter-binding kinase assay, Kinase HotSpot; conditions: compound 0.5 µM; ATP 10 µM
Sequence (Q9Y6M4 whole entry, looked up): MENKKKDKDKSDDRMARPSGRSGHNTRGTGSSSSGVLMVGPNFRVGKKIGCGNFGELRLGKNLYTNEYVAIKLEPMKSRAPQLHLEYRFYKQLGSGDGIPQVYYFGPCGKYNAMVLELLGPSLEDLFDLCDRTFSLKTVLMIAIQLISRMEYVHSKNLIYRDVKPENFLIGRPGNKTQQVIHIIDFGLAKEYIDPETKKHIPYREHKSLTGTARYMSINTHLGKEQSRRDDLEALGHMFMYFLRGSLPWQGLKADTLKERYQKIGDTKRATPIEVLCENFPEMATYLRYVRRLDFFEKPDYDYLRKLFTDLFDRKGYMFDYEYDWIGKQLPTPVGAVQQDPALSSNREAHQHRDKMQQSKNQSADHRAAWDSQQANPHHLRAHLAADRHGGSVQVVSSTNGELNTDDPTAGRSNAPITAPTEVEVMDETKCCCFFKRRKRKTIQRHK
metric_name: residual activity

[[record]]
compound = "O=c1cc(-c2cccc3c2Sc2ccccc2S3)oc(N2CCOCC2)c1"
study_target = "CSNK1G3 (human) (UniProt Q9Y6M4)"
value_observed = "87.9%"

[[record]]
compound = "NC(=O)c1ccc(N(C(N)=O)c2c(F)cccc2F)nc1-c1ccc(F)cc1F"
study_target = "CSNK1G3 (human) (UniProt Q9Y6M4)"
value_observed = "103%"

[[record]]
compound = "CCCNC(=O)Nc1ccc(Oc2ncnc3cc(OC)c(OC)cc23)cc1Cl"
study_target = "CSNK1G3 (human) (UniProt Q9Y6M4)"
value_observed = "105%"

[[record]]
compound = "COc1cc2ncnc(Nc3ccc(F)c(Cl)c3)c2cc1OCCCN1CCOCC1"
study_target = "CSNK1G3 (human) (UniProt Q9Y6M4)"
value_observed = "103%"

[[record]]
compound = "Cc1cc2ncc(-c3ccccc3)nc2cc1C"
study_target = "CSNK1G3 (human) (UniProt Q9Y6M4)"
value_observed = "99%"

[[record]]
compound = "Nc1n[nH]c2nnc(-c3c(-c4ccccc4)nn4ccccc34)cc12"
study_target = "CSNK1G3 (human) (UniProt Q9Y6M4)"
value_observed = "104%"

[[record]]
compound = "O=C(Nc1ccc(Cl)cc1)c1ccccc1NCc1ccncc1"
study_target = "CSNK1G3 (human) (UniProt Q9Y6M4)"
value_observed = "105%"

[[record]]
compound = "CS(=O)c1ccc(-c2nc(-c3ccc(F)cc3)c(-c3ccncc3)[nH]2)cc1 (centres undefined)"
study_target = "CSNK1G3 (human) (UniProt Q9Y6M4)"
value_observed = "103%"

[[record]]
compound = "O=C1Nc2ccccc2/C1=C\\c1c(Cl)[nH]c2ccccc12"
study_target = "CSNK1G3 (human) (UniProt Q9Y6M4)"
value_observed = "92.8%"

[[record]]
compound = "C#Cc1cccc(Nc2ncnc3cc(OCCOC)c(OCCOC)cc23)c1"
study_target = "CSNK1G3 (human) (UniProt Q9Y6M4)"
value_observed = "106%"

[[record]]
compound = "COc1cc2nccc(Oc3ccc(NC(=S)NC(=O)c4ccccc4C)cc3)c2cc1OC"
study_target = "CSNK1G3 (human) (UniProt Q9Y6M4)"
value_observed = "93.3%"

[[record]]
compound = "CC(C)[C@H](CO)Nc1nc(Nc2cccc(Cl)c2)c2ncn(C(C)C)c2n1"
study_target = "CSNK1G3 (human) (UniProt Q9Y6M4)"
value_observed = "17.3%"

[[record]]
compound = "CSc1nc(-c2ccc(F)cc2)c(-c2ccnc(NC(C)c3ccccc3)c2)[nH]1 (centres undefined)"
study_target = "CSNK1G3 (human) (UniProt Q9Y6M4)"
value_observed = "58.4%"

[[record]]
compound = "Clc1ccc(Nc2nnc(Cc3ccncc3)c3ccccc23)cc1"
study_target = "CSNK1G3 (human) (UniProt Q9Y6M4)"
value_observed = "100%"

[[record]]
compound = "O=C(NC(NC(=S)Nc1ccc(F)c([N+](=O)[O-])c1)C(Cl)(Cl)Cl)C(c1ccccc1)c1ccccc1 (centres undefined)"
study_target = "CSNK1G3 (human) (UniProt Q9Y6M4)"
value_observed = "87.7%"

[[record]]
compound = "O=C1Cc2c([nH]c3ccc([N+](=O)[O-])cc23)-c2ccccc2N1"
study_target = "CSNK1G3 (human) (UniProt Q9Y6M4)"
value_observed = "90%"

[[record]]
compound = "Oc1ccc(-c2nc(-c3ccc(F)cc3)c(-c3ccncc3)[nH]2)cc1"
study_target = "CSNK1G3 (human) (UniProt Q9Y6M4)"
value_observed = "102%"

[[record]]
compound = "Nc1nc(Nc2ccc(S(N)(=O)=O)cc2)nn1C(=S)Nc1c(F)cccc1F"
study_target = "CSNK1G3 (human) (UniProt Q9Y6M4)"
value_observed = "20.8%"

[[record]]
compound = "O=c1cc(N2CCNCC2)oc2c(-c3ccccc3)cccc12"
study_target = "CSNK1G3 (human) (UniProt Q9Y6M4)"
value_observed = "102%"

[[record]]
compound = "COc1ccc(-c2cnc3c(-c4ccsc4)cnn3c2)cc1"
study_target = "CSNK1G3 (human) (UniProt Q9Y6M4)"
value_observed = "102%"

[[record]]
compound = "CC(C)n1cnc2c(Nc3cccc(Cl)c3)nc(NCCO)nc21"
study_target = "CSNK1G3 (human) (UniProt Q9Y6M4)"
value_observed = "6.89%"

[[record]]
compound = "CC(C)(C)c1nc2c3ccc(F)cc3c3c(=O)[nH]ccc3c2[nH]1"
study_target = "CSNK1G3 (human) (UniProt Q9Y6M4)"
value_observed = "105%"

[[record]]
compound = "Cc1ccc(NC(=O)c2ccc(CN3CCN(C)CC3)cc2)cc1Nc1nc(-c2cccnc2)cs1"
study_target = "CSNK1G3 (human) (UniProt Q9Y6M4)"
value_observed = "96.8%"

[[record]]
compound = "O=C1Nc2cc(Br)ccc2/C1=C1/Nc2ccccc2/C1=N\\O"
study_target = "CSNK1G3 (human) (UniProt Q9Y6M4)"
value_observed = "78.3%"


Cited source for all entries: the kinase profiling compilation of Christmann-Franck et al. (2016)
